Molecular target: ΔF508 mutant CFTR (Homo sapiens, UniProt P13569, DEL508-508)
Construct: expressed in transfected cells; host or cells: Fischer rat thyroid (FRT) cells, co-expressing the halide-sensitive YFP-H148Q/I152L
Sequence (P13569 with tags, fused parts or gaps DEL508-508): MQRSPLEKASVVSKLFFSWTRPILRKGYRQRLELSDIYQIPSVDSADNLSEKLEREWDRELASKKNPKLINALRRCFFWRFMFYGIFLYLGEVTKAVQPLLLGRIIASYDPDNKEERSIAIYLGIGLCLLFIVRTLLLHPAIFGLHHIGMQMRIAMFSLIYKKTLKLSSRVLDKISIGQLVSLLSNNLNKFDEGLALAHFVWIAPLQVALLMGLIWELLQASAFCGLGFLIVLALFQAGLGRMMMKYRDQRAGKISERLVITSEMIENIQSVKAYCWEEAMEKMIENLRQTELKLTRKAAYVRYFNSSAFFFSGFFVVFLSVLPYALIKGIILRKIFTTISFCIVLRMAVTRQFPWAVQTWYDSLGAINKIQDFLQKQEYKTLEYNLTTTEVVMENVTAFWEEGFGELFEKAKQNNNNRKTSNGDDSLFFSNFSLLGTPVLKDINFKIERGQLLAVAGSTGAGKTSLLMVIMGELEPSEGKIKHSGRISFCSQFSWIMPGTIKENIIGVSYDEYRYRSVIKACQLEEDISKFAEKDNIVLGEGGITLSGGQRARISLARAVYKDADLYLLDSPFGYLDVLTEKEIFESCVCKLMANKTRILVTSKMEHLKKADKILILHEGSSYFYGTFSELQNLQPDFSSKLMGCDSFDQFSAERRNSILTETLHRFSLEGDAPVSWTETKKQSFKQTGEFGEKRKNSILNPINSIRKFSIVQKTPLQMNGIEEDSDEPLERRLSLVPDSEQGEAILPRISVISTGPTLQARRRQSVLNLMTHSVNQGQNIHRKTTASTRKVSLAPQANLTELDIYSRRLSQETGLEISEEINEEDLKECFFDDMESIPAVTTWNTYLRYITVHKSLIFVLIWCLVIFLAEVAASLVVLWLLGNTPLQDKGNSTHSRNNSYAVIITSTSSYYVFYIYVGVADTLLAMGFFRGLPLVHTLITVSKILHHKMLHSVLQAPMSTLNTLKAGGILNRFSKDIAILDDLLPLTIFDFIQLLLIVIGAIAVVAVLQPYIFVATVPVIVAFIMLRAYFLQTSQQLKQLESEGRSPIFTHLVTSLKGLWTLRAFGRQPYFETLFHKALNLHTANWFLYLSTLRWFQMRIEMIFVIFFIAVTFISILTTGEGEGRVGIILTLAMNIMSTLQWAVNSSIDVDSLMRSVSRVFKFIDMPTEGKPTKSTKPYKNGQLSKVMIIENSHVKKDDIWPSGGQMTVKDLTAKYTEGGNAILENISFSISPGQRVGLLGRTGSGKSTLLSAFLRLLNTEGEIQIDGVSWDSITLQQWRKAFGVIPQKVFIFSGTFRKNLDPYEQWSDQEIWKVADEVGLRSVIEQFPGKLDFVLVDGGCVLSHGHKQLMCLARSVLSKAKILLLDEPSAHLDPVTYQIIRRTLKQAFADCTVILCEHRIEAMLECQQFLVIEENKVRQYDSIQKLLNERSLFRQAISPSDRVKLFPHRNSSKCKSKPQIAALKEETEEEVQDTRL
Experiment: Fluorescence Assay of ΔF508 mutant CFTR activity (halide-sensitive YFP quenching by iodide influx in FRT cells)
Format: cell-based
Parameters: key: fold of mean activity with forskolin alone (I− quenching rate)
Conditions: test compounds 20 μM with forskolin 20 μM, 20 min; FRT cells expressing ΔF508-CFTR and YFP-H148Q/I152L, incubated at 27° C. 20-24 h; rate of fluorescence quenching by I−, normalized to mean activity with forskolin alone
So I've got a bunch of compounds here, and I need their CFTR Activity values.
// return a plain number; no unit text

Request: Give CFTR Activity for CNCCCCOc1ccncc1NC(=O)c1ccc(F)c(-c2c(F)cccc2F)n1.Cl [Example 16]
Result: 0.6

Request: Please list CFTR Activity recorded for the compound CN(C)CCCOc1ccncc1NC(=O)c1ccc(F)c(-c2c(F)cccc2F)n1.Cl [Example 14]
Result: 0.2

Request: Let me know recorded CFTR Activity for Cl.NC1CCC(Oc2ccncc2NC(=O)c2ccc(F)c(-c3c(F)cccc3F)n2)CC1 (stereo not drawn) [Example 10] , thanks.
Result: 2.2

Request: Name the recorded CFTR Activity of the compound listed here: Cl.NCCCOc1ccncc1NC(=O)c1ccc(F)c(-c2c(F)cccc2F)n1 [Example 12]
Result: 0.7

Request: Identify the reported CFTR Activity for the following entry. Cl.NCC(CCl)COc1ccncc1NC(=O)c1nc(-c2c(F)cccc2F)c(C(F)(F)F)cc1N (stereo not drawn) [Example 55]
Result: 5.5

Request: Read off the recorded CFTR Activity for Cl.Nc1cc(F)c(-c2c(F)cccc2F)nc1C(=O)Nc1cnccc1OC1CCNCC1 [Example 25]
Result: 3.2

Request: Answer with the recorded CFTR Activity of Cl.O=C(Nc1cnccc1OC1CCCNCC1)c1nc(-c2c(F)cccc2F)ccc1F (stereo not drawn) [Example 40] only.
Result: 1.8

Request: Consider the compound Cl.NC1CCCC(Oc2ccncc2NC(=O)c2ccc(C(F)(F)F)c(-c3c(F)cccc3F)n2)C1 (stereo not drawn) [Example 60] and give its recorded CFTR Activity.
Result: 5.7

Request: Hello, please tell me recorded CFTR Activity for this one: Cl.NC1CCCC(Oc2ccncc2NC(=O)c2ccc(F)c(-c3c(F)cccc3F)n2)C1 (stereo not drawn) [Example 11]
Result: 3.1

Request: Write down CFTR Activity measured for item Cl.O=C(Nc1cnccc1OC1CCNCC1)c1ccc(C(F)(F)F)c(-c2c(F)cccc2F)n1 [Example 45]
Result: 2.7

Request: Recall and state the measured CFTR Activity for CC(C)(O)CCCOc1ccncc1NC(=O)c1ccc(F)c(-c2c(F)cccc2F)n1 [Example 20] .
Result: 0.1

Request: Answer with reported CFTR Activity of Cl.Nc1cc(C(F)(F)F)c(-c2c(F)cccc2F)nc1C(=O)Nc1cnccc1OC1CCCC(N)C1 (stereo not drawn) [Example 61]
Result: 6.1

Request: Return value of CFTR Activity for input Cl.Nc1cc(C(F)(F)F)c(-c2c(F)cccc2F)nc1C(=O)Nc1cnccc1OCC1CCNCC1 [Example 49] , no commentary.
Result: 4.3

Request: Supply reported CFTR Activity belonging to this compound: O=C(Nc1cnccc1OCC1CCOCC1)c1ccc(F)c(-c2c(F)cccc2F)n1 [Example 22]
Result: 0.05

Request: Give recorded CFTR Activity. Cl.O=C(Nc1cnccc1OCC1CCNCC1)c1ccc(C(F)(F)F)c(-c2c(F)cccc2F)n1 [Example 43]
Result: 2.3

Request: Specify measured CFTR Activity for Cl.NCCCCOc1ccncc1NC(=O)c1nc(-c2c(F)cccc2F)c(F)cc1N [Example 36] .
Result: 2.3

Request: Supply reported CFTR Activity belonging to this compound: Cl.NCC(CO)COc1ccncc1NC(=O)c1nc(-c2c(F)cccc2F)c(F)cc1N (stereo not drawn) [Example 57]
Result: 2.1

Request: Look up CFTR Activity of Cl.Nc1cc(C(F)(F)F)c(-c2ccccc2)nc1C(=O)Nc1cnccc1OC1CCNC1 (stereo not drawn) [Example 53] and report it.
Result: 2.5
